B1: Gamma-crystallin C, residues 91 to 170; numbered along this chain, P07315 (parent)
chain: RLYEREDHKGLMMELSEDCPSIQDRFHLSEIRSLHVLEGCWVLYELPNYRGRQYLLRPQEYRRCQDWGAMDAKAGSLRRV

variants of: B1; experiment: abundance fitness (aPCA) (normalised: wild type 0, dead -1); higher = more abundant; growth selection in yeast, the domain comes from the species named; conditions: Homo sapiens
Everything with abundance fitness lower than -0.3 is Not fulfilled; everything else, including exactly -0.3, is Fulfilled.

mutation-notation: R25P
qualitative-label: Not fulfilled

mutation-notation: L55Q
qualitative-label: Fulfilled

mutation-notation: L55G
qualitative-label: Fulfilled

mutation-notation: N48E
qualitative-label: Not fulfilled

mutation-notation: P20V
qualitative-label: Not fulfilled

mutation-notation: Y54M
qualitative-label: Not fulfilled

For this variant, is measured abundance fitness -0.3 or higher? `L15N` Not fulfilled

For this variant, is measured abundance fitness -0.3 or higher? `E17F` Not fulfilled

For this variant, is measured abundance fitness -0.3 or higher? `A74S` Not fulfilled

For this variant, is measured abundance fitness -0.3 or higher? `L55K` Fulfilled

For this variant, is measured abundance fitness -0.3 or higher? `G39W` Not fulfilled

For this variant, is measured abundance fitness -0.3 or higher? `I22V` Fulfilled
